B1: library; numbered along this chain (parent)
chain: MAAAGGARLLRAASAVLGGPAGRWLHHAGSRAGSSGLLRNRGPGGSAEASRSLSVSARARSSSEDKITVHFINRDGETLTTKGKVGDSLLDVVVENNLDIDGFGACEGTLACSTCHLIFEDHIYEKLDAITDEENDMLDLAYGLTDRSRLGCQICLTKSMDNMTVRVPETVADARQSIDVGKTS

- Variants of: B1
- experimental.protocol: scaled log2 fold change in cell abundance, elesclomol vs control (0 = silent mean, 1 = nonsense mean) (scaled log2 ratio); higher = higher viability under elesclomol (loss of FDX1 cuproptosis function);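 note: variant abundance is its share of total variant reads in each endpoint sample, from next-generation sequencing of the integrated ORF PCR-amplified out of genomic DNA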
- condition.label: with ABC1 FDX1 KO; elesclomol 5 nM; glucose 10 mM; 14 days
endpoint.name: scaled log2 fold change
Please reply with the number alone, leaving off any unit.

These recorded examples may help you get a feel for the data.
>  <residue.change>
L110K

>  <scaled log2 fold change>
0.374

$$$$
>  <residue.change>
A13M

>  <scaled log2 fold change>
-0.148

$$$$

In: Please look up its scaled log2 fold change: A7L
Out: 0.0503

In: What do you have for N96F ?
Out: 0.145

In: What do you have for H26K ?
Out: 0.352

In: What do you have for A129L ?
Out: 0.598

In: What do you have for R41D ?
Out: 0.137

In: What do you have for T183C ?
Out: 0.0469

In: What do you have for R8N ?
Out: 0.424

In: What do you have for A3C ?
Out: 0.227

In: What do you have for A47F ?
Out: 0.852

In: What do you have for L156N ?
Out: 0.8

In: What do you have for I67Y ?
Out: 0.135

In: What do you have for R74M ?
Out: -0.486

In: What do you have for N96K ?
Out: -0.0525

In: What do you have for A47W ?
Out: 0.856

In: What do you have for K84R ?
Out: -0.138

In: What do you have for P168R ?
Out: 0.453

In: What do you have for K126W ?
Out: 0.411

In: What do you have for D91R ?
Out: -0.658

In: What do you have for H70A ?
Out: 0.42

In: What do you have for D101Y ?
Out: 0.239
